The measurements presented in this section are drawn from patent US20260098059A1.

Molecular target: T1, β-catenin (UniProt P35222 134-665, limits assumed, biotinylated in the SPR and plate assays)
T1 sequence (looked up): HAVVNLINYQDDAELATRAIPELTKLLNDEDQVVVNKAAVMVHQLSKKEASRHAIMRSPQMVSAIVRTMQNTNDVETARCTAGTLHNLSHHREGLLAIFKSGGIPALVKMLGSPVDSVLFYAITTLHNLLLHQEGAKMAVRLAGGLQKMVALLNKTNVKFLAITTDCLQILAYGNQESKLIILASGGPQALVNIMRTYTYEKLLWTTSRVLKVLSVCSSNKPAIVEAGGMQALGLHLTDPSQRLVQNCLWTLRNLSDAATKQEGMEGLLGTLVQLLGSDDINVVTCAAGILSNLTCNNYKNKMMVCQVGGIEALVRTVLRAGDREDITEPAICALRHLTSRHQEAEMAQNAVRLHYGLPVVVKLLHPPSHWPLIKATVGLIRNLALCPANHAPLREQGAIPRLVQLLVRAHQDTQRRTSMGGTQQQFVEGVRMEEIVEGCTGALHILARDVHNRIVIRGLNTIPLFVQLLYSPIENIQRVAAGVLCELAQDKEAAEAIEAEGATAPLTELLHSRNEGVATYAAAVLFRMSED
Test: cell-based or functional assay
Bridges are numbered along the chain shown (N, C = ends). Where no end group is shown, it is not given here. [ ]: non-standard residue; d: D form. The star is where a group is joined. NMeW = CN[C@@H](Cc1c[nH]c2ccccc12)C(=O)O; Stearoyl = CCCCCCCCCCCCCCCCCC(=O)*; Palmitoyl = CCCCCCCCCCCCCCCC(=O)*; Chg = N[C@H](C(=O)O)C1CCCCC1; αMeV = CC(C)[C@](C)(N)C(=O)O; αMeS = C[C@](N)(CO)C(=O)O; NMeA = CN[C@@H](C)C(=O)O; GABA = NCCCC(=O)O
endpoint name: Proliferation IC50, Wnt dependent cells
Include the unit right after the number.

binder: KWALIXAWD (HELM PEPTIDE1{[ac].K.W.[Cha].L.I.[Abu].A.W.D}$PEPTIDE1,PEPTIDE1,2:R3-10:R3$$$V2.0; SMILES CC[C@@H]1NC(=O)[C@H]([C@@H](C)CC)NC(=O)[C@H](CC(C)C)NC(=O)[C@H](CC2CCCCC2)NC(=O)[C@H](Cc2c[nH]c3ccccc23)NC(=O)[C@@H](NC(C)=O)CCCCNC(=O)C[C@@H](C(=O)O)NC(=O)[C@H](Cc2c[nH]c3ccccc23)NC(=O)[C@H](C)NC1=O) [SEQ ID NO: 261]
Proliferation IC50, Wnt dependent cells: 4 µM

Provide the reported Proliferation IC50, Wnt dependent cells of each entry below, same order.
1. KWGLIXAWD (HELM PEPTIDE1{[ac].K.W.[O=C([C@@H](N[*:1])C1CCCCC1)[*:2]].L.I.[Abu].A.W.D}$PEPTIDE1,PEPTIDE1,2:R3-10:R3$$$V2.0; SMILES CC[C@@H]1NC(=O)[C@H]([C@@H](C)CC)NC(=O)[C@H](CC(C)C)NC(=O)[C@H](C2CCCCC2)NC(=O)[C@H](Cc2c[nH]c3ccccc23)NC(=O)[C@@H](NC(C)=O)CCCCNC(=O)C[C@@H](C(=O)O)NC(=O)[C@H](Cc2c[nH]c3ccccc23)NC(=O)[C@H](C)NC1=O) [SEQ ID NO: 262]
2. W[NMeA]QKILDDH[Chg]QRVWG-NH2 (lactam 4-8; not fully specified (N-terminus); printed as H23C11C(O)NH-W-NMeA-QK*ILDD*H-Chg-QRVWG-NH2) [SEQ ID NO: 432]
3. Palmitoyl-W[NMeW]E[αMeS]ILDEH[αMeV]QRVWG-OH [SEQ ID NO: 396]
4. Stearoyl-W[NMeW]E[αMeS]ILDEH[αMeV]QRVWG-OH [SEQ ID NO: 390]
5. Stearoyl-W[NMeW]E[αMeS]ILDEH[αMeV]QRVW-OH (393 used) [Peptide 4 (SEQ ID NO: 393/500)]
6. {Stearoyl-GABA}-W[NMeW]E[αMeS]ILDEH[αMeV]QRVW-OH [SEQ ID NO: 395]

5 µM
14.9 µM
2.9 µM
4.7 µM
1.7 µM
6.8 µM
